Origin of measurements: patent US12534534

Form field: EC50 (nM), mIL-2 release, DO11.10-cCD137 T cell assay, crosslinked (mean of n = 2) (one value per entry).
# tgt: T1, cyno CD137 on DO11.10-cCD137 cells (cynomolgus, UniProt Q07011 24-255 (human entry))
# T1 chain: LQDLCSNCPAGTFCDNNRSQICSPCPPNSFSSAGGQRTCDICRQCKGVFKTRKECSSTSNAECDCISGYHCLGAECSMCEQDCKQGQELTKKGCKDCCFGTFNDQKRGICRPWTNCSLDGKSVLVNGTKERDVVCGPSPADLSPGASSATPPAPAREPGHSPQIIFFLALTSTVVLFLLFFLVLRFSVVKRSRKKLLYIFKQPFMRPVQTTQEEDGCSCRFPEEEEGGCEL
# protocolSummary: cell-based or functional assay
propertyMeasured: EC50 (nM), mIL-2 release, DO11.10-cCD137 T cell assay, crosslinked (mean of n = 2)

binder	obsValue
FS20-22-49AA/FS30-10-12 (bispecific antibody, human IgG1, kappa, L234A L235A, V domains shown, M97 (Kabat) to T against FS30-10; also called FS30-10-12 in mAb^2 format) VH: EVQLLESGGGLVQPGGSLRLSCAASGFTFSSYDMSWVRQAPGKGLEWVSDIDPTGSKTDYADSVKGRFTISRDNSKNTLYLQMNSLRAEDTAVYYCARDLTVYGFDYWGQGTLVTVSS VL: EIVLTQSPGTLSLSPGERATLSCRASQSVSSSYLAWYQQKPGQAPRLLIYGASSRATGIPDRFSGSGSGTDFTLTISRLEPEDFAVYYCQQSYSYPVTFGQGTKVEIKR	5.8
FS20-22-49AA/FS30-10-3 (bispecific antibody, human IgG1, kappa, L234A L235A, V domains shown, M97 (Kabat) to N against FS30-10; also called FS30-10-3 in mAb^2 format) VH: EVQLLESGGGLVQPGGSLRLSCAASGFTFSSYDMSWVRQAPGKGLEWVSDIDPTGSKTDYADSVKGRFTISRDNSKNTLYLQMNSLRAEDTAVYYCARDLNVYGFDYWGQGTLVTVSS VL: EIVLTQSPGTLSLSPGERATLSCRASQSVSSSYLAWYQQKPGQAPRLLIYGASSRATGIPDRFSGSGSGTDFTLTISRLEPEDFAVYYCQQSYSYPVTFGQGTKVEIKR	5
FS20-22-49AA/FS30-35-14 (bispecific antibody, human IgG1, kappa, L234A L235A, V domains shown, M100F (Kabat) to A against FS30-35; also called FS30-35-14 in mAb^2 format) VH: EVQLLESGGGLVQPGGSLRLSCAASGFTFSAYNIHWVRQAPGKGLEWVSDISPYGGATNYADSVKGRFTISRDNSKNTLYLQMNSLRAEDTAVYYCARNLYELSAYSYGADYWGQGTLVTVSS VL: EIVLTQSPGTLSLSPGERATLSCRASQSVSSSYLAWYQQKPGQAPRLLIYGASSRATGIPDRFSGSGSGTDFTLTISRLEPEDFAVYYCQQYYYSSPITFGQGTKVEIKR	6.6
FS20-22-49AA/FS30-10-16 (bispecific antibody, human IgG1, kappa, L234A L235A, V domains shown, M97 (Kabat) to L against FS30-10; also called FS30-10-16 in mAb^2 format) VH: EVQLLESGGGLVQPGGSLRLSCAASGFTFSSYDMSWVRQAPGKGLEWVSDIDPTGSKTDYADSVKGRFTISRDNSKNTLYLQMNSLRAEDTAVYYCARDLLVYGFDYWGQGTLVTVSS VL: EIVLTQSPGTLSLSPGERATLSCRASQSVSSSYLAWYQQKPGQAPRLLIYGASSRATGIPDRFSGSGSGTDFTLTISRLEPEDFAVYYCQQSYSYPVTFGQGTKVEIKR	3.7
FS20-22-49AA/FS30-5-37 (bispecific antibody, human IgG1, kappa, L234A L235A, V domains shown, M100D to I and M100H to L against FS30-5; also called FS30-5-37 in mAb^2 format) VH: EVQLLESGGGLVQPGGSLRLNCAASGFTFSSYAMSWVRQAPGKGLEWVSAISGSGGSTYYADSVKGRFTISRDNSKNTLYLQMNSLRAEDTAVYYCARSYDKYWGSSIYSGLDYWGQGTLVTVSS VL: EIVLTQSPGTLSLSPGERATLSCRASQSVSSSYLAWYQQKPGQAPRLLIYGASSRATGIPDRFSGSGSGTDFTLTISRLEPEDFAVYYCQQYYSYYPVTFGQGTKVEIKR	7.5
